# pKi annotations
target: GST-tagged-Wee1 kinase (Homo sapiens); assay: Wee1 time-resolved fluorescence equilibrium binding assay (displacement of Oregon Green-labeled ATP-competitive kinase probe)
Sequence (P30291 whole entry): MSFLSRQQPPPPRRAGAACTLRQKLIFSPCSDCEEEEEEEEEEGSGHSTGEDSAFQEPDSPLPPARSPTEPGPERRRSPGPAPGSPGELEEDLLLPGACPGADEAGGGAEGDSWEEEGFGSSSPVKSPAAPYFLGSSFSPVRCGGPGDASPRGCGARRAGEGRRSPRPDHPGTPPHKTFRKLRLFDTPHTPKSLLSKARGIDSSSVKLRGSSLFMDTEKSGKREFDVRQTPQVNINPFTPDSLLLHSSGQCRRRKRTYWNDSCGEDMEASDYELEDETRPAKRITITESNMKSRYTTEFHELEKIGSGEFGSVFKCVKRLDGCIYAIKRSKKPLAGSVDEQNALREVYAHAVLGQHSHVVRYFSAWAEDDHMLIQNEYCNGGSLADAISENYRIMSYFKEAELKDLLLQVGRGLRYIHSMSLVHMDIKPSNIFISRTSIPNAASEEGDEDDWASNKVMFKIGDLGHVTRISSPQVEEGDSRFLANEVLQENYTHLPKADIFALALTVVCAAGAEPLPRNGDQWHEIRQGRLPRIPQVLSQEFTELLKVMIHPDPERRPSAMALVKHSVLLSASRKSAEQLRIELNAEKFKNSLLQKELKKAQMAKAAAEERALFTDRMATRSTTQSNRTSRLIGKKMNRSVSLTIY
pKi: −log10 of the molar value.

compound	system-name	pKi
Cc1nn(-c2c(Cl)cccc2Cl)c(=O)c2cnc(Nc3cccc(N4CCN(C5CCOCC5)CC4)c3)nc12 [Example 509]	GST-tagged-Wee1 kinase (Homo sapiens)	8.92
CC1CCCC(C)C1n1nc(-c2ccccn2)c2nc(Nc3ccc(N4CCNCC4)cc3)ncc2c1=O (stereo not shown) [Example 333]	GST-tagged-Wee1 kinase (Homo sapiens)	6.11
CCCc1nn(-c2ccccc2)c(=O)c2cnc(Nc3ccc(N4CCN(C)CC4)cc3)nc12 [Example 17]	GST-tagged-Wee1 kinase (Homo sapiens)	7.44
Cc1nn(-c2c(Cl)cccc2Cl)c(=O)c2cnc(Nc3cccc(C(=O)N4CCC(N(C)C)CC4)c3)nc12 [Example 519]	GST-tagged-Wee1 kinase (Homo sapiens)	9.12

----------
target: UniProt:P30291; experiment: Wee1 time-resolved fluorescence equilibrium binding assay (displacement of Oregon Green-labeled ATP-competitive kinase probe)
pKi: −log10 of the molar value.
measurement-type: pKi

C=CCn1nc(-c2cccs2)c2nc(Nc3ccc(N4CCN(C(C)C)CC4)c(C)c3)ncc2c1=O 8.40
O=C1CCCN1c1ccc(-c2nn(-c3c(Cl)cccc3Cl)c(=O)c3cnc(Nc4ccc(N5CCNCC5)cc4)nc23)cc1 9.70
Cc1nn(-c2c(Cl)cccc2Cl)c(=O)c2cnc(Nc3cccc(NCCN4CCOCC4)c3)nc12 8.96
C=CCn1nc(-c2ccco2)c2nc(Nc3ccc(N4CCN(C(C)C)CC4)cc3)ncc2c1=O 7.85

----------
biological target: GST-tagged-Wee1 kinase (Homo sapiens); assay: Wee1 time-resolved fluorescence equilibrium binding assay (displacement of Oregon Green-labeled ATP-competitive kinase probe)
Ki class ranges: band 1 (below 0.2 nM), band 2 (0.2 nM to below 2 nM), band 3 (2 nM or more)

molecule	discrete-label
Cc1nn(-c2c(Cl)cccc2Cl)c(=O)c2cnc(Nc3ccc4c(c3)CC(N(C)C)C4)nc12 (stereo not drawn) [Example 397]	band 2
Cc1nn(-c2c(Cl)cccc2Cl)c(=O)c2cnc(Nc3cc4c(cc3Cl)CNCC4)nc12 [Example 472]	band 3
CN1CCN(c2ccc(Nc3ncc4c(=O)n(-c5c(F)cccc5Cl)nc(-c5ccncn5)c4n3)cc2)CC1 [Example 298]	band 2
Cc1nn(-c2c(Cl)cccc2Cl)c(=O)c2cnc(Nc3ccc4c(c3)C(C)(C)NCC4)nc12 [Example 444]	band 1
CN1CCN(c2ccc(Nc3ncc4c(=O)n(-c5ccccc5F)nc(C5CC(F)(F)C5)c4n3)cc2)CC1 [Example 198]	band 3
CN1Cc2cc(Nc3ncc4c(=O)n(-c5c(Cl)cccc5Cl)nc(-c5cn(C)cn5)c4n3)ccc2C2(CC2)C1 [Example 339]	band 2
COCc1nn(-c2c(Cl)cccc2Cl)c(=O)c2cnc(Nc3ccc(N4CCNCC4)cc3)nc12 [Example 424]	band 2
CC1(C)CNCc2cc(Nc3ncc4c(=O)n(-c5c(Cl)cccc5Cl)nc(C(F)F)c4n3)ccc21 [Example 478]	band 1
O=C1CCCN1c1ccc(-c2nn(-c3c(Cl)cccc3Cl)c(=O)c3cnc(Nc4ccc(C5CCNCC5)cc4)nc23)cc1 [Example 254]	band 2
Cc1nn(-c2c(Cl)cccc2Cl)c(=O)c2cnc(Nc3ccc4c(c3)CN(C)CC43CC3)nc12 [Example 401]	band 2
C=CCn1nc(CCc2ccccc2)c2nc(Nc3ccc(N4CCN(C)CC4)cc3)ncc2c1=O [Example 7]	band 3
Cn1cnc(-c2nn(-c3c(Cl)cccc3Cl)c(=O)c3cnc(Nc4ccc5c(c4)CNCC5)nc23)c1 [Example 342]	band 2
O=c1c2cnc(Nc3ccc(N4CCNCC4)cc3)nc2c(-c2ccccn2)nn1CCO [Example 267]	band 3
CNC(=O)c1cccc(-c2nn(-c3c(Cl)cccc3Cl)c(=O)c3cnc(Nc4ccc(N5CCN(C)CC5)cc4)nc23)c1 [Example 191]	band 1
